- PROTOCOL NOTES: Half life in dog liver microsomes at 100 uM after 30 mins by LC-MS/MS analysis
- Assay type: ADME, Canis lupus familiaris, microsome
ATTRIBUTE MEASURED: half-life at 100 µM (min)
Write the number in min without appending the unit.

Prompt: Looking for the measured half-life at 100 µM of `CN1CC[C@H](c2c(O)cc(O)c3c(=O)cc(/C=C/c4c(Cl)cccc4Cl)oc23)[C@H](O)C1` , can you help?
Completion: 24

====

Please respond with reported inhibition for every item in the list.
- TEST SYSTEM: CDK9/cyclin T1 (Homo sapiens) (UniProt O60563+P50750)
- PROTOCOL NOTES: Inhibition of CDK9/cyclin T1 (unknown origin) at 0.5 uM using YSPTSPSYSPTSPSYSPTSPKKK as substrate after 30 mins in presence of [33P]-gamma-ATP by filter binding assay relative to control
- Assay type: protein-complex assay
# output: bare number, implied unit %

Prompt: Field: inhibition (CDK9/cyclin T1 (Homo sapiens) (UniProt O60563+P50750)). Entry: `Cc1cc(=O)c2c(O)c(CN3CCCCC3)c(O)c([C@H]3CCN(C)C[C@H]3O)c2o1`
Completion: 10

Prompt: And CCOc1ccc(Br)c(C(O)c2c(C)oc3c([C@H]4CCN(C)C[C@H]4O)c(O)cc(O)c3c2=O)c1 (stereo partly drawn) ?
Completion: 2

Prompt: Also `CN1CC[C@H](c2c(O)cc(O)c3c(=O)cc(/C=C/c4cccc(Cl)c4)oc23)[C@H](O)C1` , if possible.
Completion: 53

Prompt: And then Cc1oc2c([C@H]3CCN(C)C[C@H]3O)c(O)cc(O)c2c(=O)c1C(O)c1cccc(Cl)c1Cl (stereo partly drawn) , what is it?
Completion: 0

Prompt: Consider next the compound Cc1oc2c([C@H]3CCN(C)C[C@H]3O)c(O)cc(O)c2c(=O)c1C(O)c1c(Cl)cccc1Cl (stereo partly drawn) in the same way.
Completion: 0

Prompt: # repeat for `CN1CC[C@H](c2c(O)cc(O)c3c(=O)cc(/C=C/c4cccc(F)c4)oc23)[C@H](O)C1`
Completion: 88

Prompt: Now consider `Cc1cc(=O)c2c(O)cc(OCc3ccccc3)c([C@H]3CCN(C)C[C@H]3O)c2o1` and answer again.
Completion: 0

Prompt: Now try `Cc1cc(=O)c2c(O)c(CN(C(C)C)C(C)C)c(O)c([C@H]3CCN(C)C[C@H]3O)c2o1` .
Completion: 12

====

- PROTOCOL NOTES: Volume of distribution in BALB/c mouse at 1 mg/kg, iv by LC-MS/MS analysis
- Assay type: ADME, organism-based
- MEASUREMENT CONDITIONS: in vivo
ATTRIBUTE MEASURED: Vd
Be sure to follow the number with its unit.

Prompt: Quick one: Vd for `CN1CC[C@H](c2c(O)cc(O)c3c(=O)cc(/C=C/c4c(Cl)cccc4Cl)oc23)[C@H](O)C1` ?
Completion: 26.2 L/kg

====

- PROTOCOL NOTES: Half life in Sprague-Dawley rat at 3 mg/kg, po by LC-MS/MS analysis
- Type: ADME, organism-based
- MEASUREMENT CONDITIONS: in vivo
ATTRIBUTE MEASURED: half-life (h)
// return numeric value only (unit: h, not printed)

Prompt: Consider the molecule shown here: `CN1CC[C@H](c2c(O)cc(O)c3c(=O)cc(/C=C/c4c(Cl)cccc4Cl)oc23)[C@H](O)C1` What is its recorded half-life?
Completion: 4.67

====

- PROTOCOL NOTES: Intrinsic clearance in rat liver microsomes assessed per mg of protein at 100 uM after 30 mins by LC-MS/MS analysis
- Type: ADME, microsome
- MEASUREMENT CONDITIONS: read-out: CLH
ATTRIBUTE MEASURED: microsomal CLint at 100 µM

Prompt: Report microsomal CLint at 100 µM for `CN1CC[C@H](c2c(O)cc(O)c3c(=O)cc(/C=C/c4c(Cl)cccc4Cl)oc23)[C@H](O)C1` please.
Completion: < 13 µL/min/mg

====

- PROTOCOL NOTES: Half life in rat liver microsomes at 100 uM after 30 mins by LC-MS/MS analysis
- Assay type: ADME, microsome
ATTRIBUTE MEASURED: half-life at 100 µM

Prompt: Look at this molecule and give its reported half-life at 100 µM. `CN1CC[C@H](c2c(O)cc(O)c3c(=O)cc(/C=C/c4c(Cl)cccc4Cl)oc23)[C@H](O)C1`
Completion: > 30 min

====

Provide the reported pIC50 of each item.
- TEST SYSTEM: CDK2/Cyclin A2 (Homo sapiens)
- PROTOCOL NOTES: Inhibition of CDK2/cyclin A (unknown origin) using histone H1 as substrate after 30 mins in presence of [33P]-gamma-ATP by filter binding assay
Here pIC50 is given on a logarithmic scale as minus log10 of the concentration in mol/L.

Prompt: Report pIC50 for `CN1CC[C@H](c2c(O)cc(O)c3c(=O)cc(/C=C/c4ccccc4Cl)oc23)[C@H](O)C1` please.
Completion: 5.85

Prompt: Same for `CN1CC[C@H](c2c(O)cc(O)c3c(=O)cc(/C=C/c4ccccc4F)oc23)[C@H](O)C1`
Completion: 5.82

Prompt: Same read-out for `CN1CC[C@H](c2c(O)cc(O)c3c(=O)cc(/C=C/c4ccccc4)oc23)[C@H](O)C1` ?
Completion: 6.03

====

- Tested on: MCF7
- PROTOCOL NOTES: Growth inhibition of human MCF7 cells at 10 uM after 48 hrs by MTT assay relative to control
- Format: functional
- MEASUREMENT CONDITIONS: MCF7, 48 h, read-out: GI
Please go through the items and note down their inhibition of growth at 10 µM.
# value in %; strip the unit string

Prompt: Fill blank: measured inhibition of growth at 10 µM of the compound Cc1oc2c([C@H]3CCN(C)C[C@H]3O)c(O)cc(O)c2c(=O)c1C(O)c1ccc(Cl)cc1 (stereo not given in full) is ____.
Completion: 6

Prompt: Lookup `Cc1cc(=O)c2c(O)cc(O)c([C@H]3CCN(C)C[C@H]3OC(=O)c3ccco3)c2o1`
Completion: 20

Prompt: Now consider `Cc1cc(=O)c2c(O)c(CN3CCCCC3)c(O)c([C@H]3CCN(C)C[C@H]3O)c2o1` .
Completion: 15

Prompt: Cool, now Cc1oc2c([C@H]3CCN(C)C[C@H]3O)c(O)cc(O)c2c(=O)c1C(O)c1cc(F)cc(F)c1 (stereo not given in full)
Completion: 25

Prompt: Then this compound: `CN1CC[C@H](c2c(O)cc(O)c3c(=O)cc(/C=C/c4cccc(Cl)c4)oc23)[C@H](O)C1`
Completion: 82
